- TARGET_UNDER_TEST: HIV-1 Env of isolate MGRM-D-003 (subtype D) (HIV-1)
- TEST_PROTOCOL: cell-based or functional assay
METRIC: IC50 (neutralization) (µg/mL)
Form entry: value (µg/mL) — number only.

For record PGT-125 (antibody, V domains shown) VH: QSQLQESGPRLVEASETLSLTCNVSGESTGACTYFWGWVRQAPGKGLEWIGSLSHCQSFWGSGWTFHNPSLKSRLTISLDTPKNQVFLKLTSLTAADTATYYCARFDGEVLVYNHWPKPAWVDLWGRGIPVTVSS VL: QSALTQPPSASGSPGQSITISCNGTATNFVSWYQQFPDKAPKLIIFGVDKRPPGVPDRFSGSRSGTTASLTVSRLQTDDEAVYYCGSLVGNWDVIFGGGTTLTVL the listed IC50 (neutralization) is 0.065
